biological target: DNA Polymerase IIIα (DnaE) from Staphylococcus aureus (Staphylococcus aureus); assay: biochemical; conditions: DNA polymerase III, S. aureus; read-out: IC50 semiquantitative scoring, S. aureus
Sequence (Q6GG04 1-1022): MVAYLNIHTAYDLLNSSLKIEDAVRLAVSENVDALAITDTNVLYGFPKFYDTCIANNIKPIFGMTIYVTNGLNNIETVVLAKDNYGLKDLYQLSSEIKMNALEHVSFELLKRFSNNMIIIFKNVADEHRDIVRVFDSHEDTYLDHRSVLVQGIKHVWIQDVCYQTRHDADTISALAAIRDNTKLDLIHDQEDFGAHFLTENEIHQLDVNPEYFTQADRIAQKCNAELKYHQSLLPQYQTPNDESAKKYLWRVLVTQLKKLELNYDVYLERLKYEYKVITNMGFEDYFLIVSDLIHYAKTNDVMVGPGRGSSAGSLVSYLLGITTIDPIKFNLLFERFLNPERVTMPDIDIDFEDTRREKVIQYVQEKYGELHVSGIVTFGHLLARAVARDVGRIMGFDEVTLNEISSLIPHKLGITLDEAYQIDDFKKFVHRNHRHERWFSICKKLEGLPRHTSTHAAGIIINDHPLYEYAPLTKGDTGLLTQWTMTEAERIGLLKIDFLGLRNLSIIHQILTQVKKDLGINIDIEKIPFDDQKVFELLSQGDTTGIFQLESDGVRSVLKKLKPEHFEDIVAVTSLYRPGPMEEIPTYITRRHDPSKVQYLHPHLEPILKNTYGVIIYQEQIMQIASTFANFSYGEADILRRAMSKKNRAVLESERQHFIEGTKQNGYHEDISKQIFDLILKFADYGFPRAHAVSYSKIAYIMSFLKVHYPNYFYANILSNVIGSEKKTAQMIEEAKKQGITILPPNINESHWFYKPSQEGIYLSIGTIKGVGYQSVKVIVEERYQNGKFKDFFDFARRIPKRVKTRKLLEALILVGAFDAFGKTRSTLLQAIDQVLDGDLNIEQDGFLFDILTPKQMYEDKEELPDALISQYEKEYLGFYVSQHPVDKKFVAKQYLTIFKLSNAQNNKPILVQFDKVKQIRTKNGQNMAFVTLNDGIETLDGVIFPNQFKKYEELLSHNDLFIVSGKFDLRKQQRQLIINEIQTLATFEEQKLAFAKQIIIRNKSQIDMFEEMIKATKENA
quantityName: IC50

Hey, DNA Polymerase IIIα (DnaE) from Staphylococcus aureus (Staphylococcus aureus) data for COCC[C@H]1OC(=O)[C@H](COC)[C@H]2C=C[C@H]3[C@H]4O[C@]2(/C(C)=C/[C@H]1C)[C@@H]3[C@H](O)[C@@H](COC)[C@H]4O [Compound 17, 17-Deoxybranimycin] : IC50 came out at 2.14 to 2140 nM

Hey, DNA Polymerase IIIα (DnaE) from Staphylococcus aureus (Staphylococcus aureus) data for COC[C@@H]1[C@@H](O)[C@@H]2[C@H]3C=C[C@@H]4[C@@H](COC)C(=O)O[C@H]([C@H](O)COC)[C@H](C)/C=C(\C)[C@@]24O[C@H]3[C@@H]1OC(=O)c1ccon1 [Compound 13, 8-O-Isoxazole-3′-carbonylbranimycin] : IC50 came out at 1730 to 17300 nM

Hey, DNA Polymerase IIIα (DnaE) from Staphylococcus aureus (Staphylococcus aureus) data for COC[C@H]1[C@@H](O)[C@@H]2O[C@@]34/C(C)=C/[C@@H](C)[C@@H]([C@H](O)COC)OC(=O)[C@H](COC)[C@H]3CC[C@@H]2[C@H]4[C@@H]1O [Compound 15, 4,5-Dihydro-branimycin] : IC50 came out at 2060 to 20600 nM

Hey, DNA Polymerase IIIα (DnaE) from Staphylococcus aureus (Staphylococcus aureus) data for COC[C@@H]1[C@@H](O)[C@@H]2[C@H]3C=C[C@@H]4[C@@H](COC)C(=O)O[C@H]([C@H](O)COC)[C@H](C)/C=C(\C)[C@@]24O[C@H]3[C@@H]1OC(=O)c1ccoc1 [Compound 5, 8-O-Furane-3′-carbonylbranimycin] : IC50 came out at 1.73 to 1730 nM

Hey, DNA Polymerase IIIα (DnaE) from Staphylococcus aureus (Staphylococcus aureus) data for COC[C@@H]1[C@@H](O)[C@@H]2[C@H]3C=C[C@@H]4[C@@H](COC)C(=O)O[C@H]([C@H](O)COC)[C@H](C)/C=C(\C)[C@@]24O[C@H]3[C@@H]1OC(=O)c1cc(Br)c(F)[nH]1 [Compound 37] : IC50 came out at 1.49 to 1490 nM
